experiment: recombinant UMI read abundance after kanamycin selection (control-corrected) (log10(CPM+1)); higher = more efficient recombination; extreme values may be limits of the assay; sequences stand for … in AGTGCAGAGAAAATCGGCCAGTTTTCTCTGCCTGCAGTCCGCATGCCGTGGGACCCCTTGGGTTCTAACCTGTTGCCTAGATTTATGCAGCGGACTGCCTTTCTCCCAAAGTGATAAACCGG…AGGTTGGTTTCACT; site = the 11-nt donor
metric: recombinant UMI read abundance (log10)
Form: value (number only, do not type unit).

[ask] Dear colleague, I am looking for the recorded recombinant UMI read abundance (log10) of the following sequence: CGCTACACATGGACCGGTTTTCCCGGTAATCCGTATTTGCT (site CTCTACACTAG)
[reply] 0.92

[ask] Same read-out for TCCGAGACATGGACCGGTTTTCCCGGTAATCCGTATTTGCG (site TCCGAGACTCG) ?
[reply] 0.0319

[ask] Same read-out for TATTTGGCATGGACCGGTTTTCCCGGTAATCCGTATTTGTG (site TATTTTGCTCA) ?
[reply] 0.0154

[ask] Same read-out for CCTAAAGCATGGACCGGTTTTCCCGGTAATCCGTATTTGTT (site CCTAAAGCTAT) ?
[reply] 0.00347

[ask] Same read-out for CCGGGTGCATGGACCGGTTTTCCCGGTAATCCGTATTTGAT (site CCGGGTGCTAT) ?
[reply] 1.25

[ask] Same read-out for AAGCACGCATGGACCGGTTTTCCCGGTAATCCGTATTTGGG (site AAGAACGCTCC) ?
[reply] 0.0117

[ask] Same read-out for GCCTCGCCATGGACCGGTTTTCCCGGTAATCCGTATTTGCT (site GCCTCGCCTAG) ?
[reply] 0

[ask] Same read-out for TGGCCGCCATGGACCGGTTTTCCCGGTAATCCGTATTTGGC (site TGGCCGTCTGC) ?
[reply] 0

[ask] Same read-out for CTACTCACATGGACCGGTTTTCCCGGTAATCCGTATTTGGG (site CTACTCACTCC) ?
[reply] 0.286

[ask] Same read-out for GATTAGCCATGGACCGGTTTTCCCGGTAATCCGTATTTGCT (site GATTAGCCTAG) ?
[reply] 0

[ask] Same read-out for ACTAGAACATGGACCGGTTTTCCCGGTAATCCGTATTTGAG (site GCTAGAACTCT) ?
[reply] 0.34

[ask] Same read-out for CTGAGATCATGGACCGGTTTTCCCGGTAATCCGTATTTGTA (site CTGAGATCTTA) ?
[reply] 2.8

[ask] Same read-out for GAACATTCATGGACCGGTTTTCCCGGTAATCCGTATTTGTT (site GAAAATTCTAA) ?
[reply] 0

[ask] Same read-out for CTAGTATCATGGACCGGTTTTCCCGGTAATCCGTATTTGAA (site CTAGTATCTGT) ?
[reply] 1.91

[ask] Same read-out for CGATTATCATGGACCGGTTTTCCCGGTAATCCGTATTTGCA (site CGATCATCTAG) ?
[reply] 0

[ask] Same read-out for CTCCCTCCATGGACCGGTTTTCCCGGTAATCCGTATTTGAG (site CTCCCTTCTCT) ?
[reply] 0.0108

[ask] Same read-out for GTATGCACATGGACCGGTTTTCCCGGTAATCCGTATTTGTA (site GTACGCACTTA) ?
[reply] 1.72

[ask] Same read-out for TCTTCTTCATGGACCGGTTTTCCCGGTAATCCGTATTTGAA (site TCTTCTTCTTT) ?
[reply] 0.00225

[ask] Same read-out for CGTCCAACATGGACCGGTTTTCCCGGTAATCCGTATTTGTA (site CGTCCAACTTA) ?
[reply] 1.61

[ask] Same read-out for GTTGTTCCATGGACCGGTTTTCCCGGTAATCCGTATTTGGA (site GTTGTTCCTTC) ?
[reply] 0.0132

[ask] Same read-out for TCGCCGCCATGGACCGGTTTTCCCGGTAATCCGTATTTGGG (site TCGCCGCCTCC) ?
[reply] 0.00807

[ask] Same read-out for GGATAGACATGGACCGGTTTTCCCGGTAATCCGTATTTGTC (site GGATAGACTGG) ?
[reply] 2.1

[ask] Same read-out for AATATGGCATGGACCGGTTTTCCCGGTAATCCGTATTTGCG (site AATATGGCTCG) ?
[reply] 1.22

[ask] Same read-out for CCTTAGCCATGGACCGGTTTTCCCGGTAATCCGTATTTGCC (site CCGTAGCCTGG) ?
[reply] 0

[ask] Same read-out for TGCCGGCCATGGACCGGTTTTCCCGGTAATCCGTATTTGCC (site TGCCGGCCTGG) ?
[reply] 0

[ask] Same read-out for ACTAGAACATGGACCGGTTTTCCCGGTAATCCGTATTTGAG (site AGTAGAACTCT) ?
[reply] 0.227

[ask] Same read-out for TCCACCGCATGGACCGGTTTTCCCGGTAATCCGTATTTGCC (site TCCACCGCTAG) ?
[reply] 0.0325

[ask] Same read-out for AATTATACATGGACCGGTTTTCCCGGTAATCCGTATTTGGA (site AATTATTCTTC) ?
[reply] 0.335

[ask] Same read-out for CTGGAGACATGGACCGGTTTTCCCGGTAATCCGTATTTGCA (site CTGGACACTTG) ?
[reply] 2.12

====

Exercise: state measured recombinant barcode read abundance (log10) for each of the sequences provided.
assay: recombinant barcode read abundance after kanamycin selection (control-corrected) (log10(CPM+1)); higher = more efficient recombination; sequences stand for … in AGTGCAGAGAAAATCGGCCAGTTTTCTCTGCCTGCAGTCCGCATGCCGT…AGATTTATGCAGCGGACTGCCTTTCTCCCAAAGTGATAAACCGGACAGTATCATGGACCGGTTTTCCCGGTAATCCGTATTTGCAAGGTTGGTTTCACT; site = the 11-nt target
Form: value (number only, do not type unit).

[ask] Dear colleague, I am looking for the recorded recombinant barcode read abundance (log10) of the following sequence: AATTTCTCTTGGGTTCTAACCTGTTGCCT (site GATTTCTCTAG)
[reply] 0.496

[ask] Same read-out for TCCCGGACTTGGGTTCTAACCTGTTGCCT (site TCTCGGACTAG) ?
[reply] 0.1

[ask] Same read-out for GTTTCGTCTTGGGTTCTAACCTGTTGCCT (site GTTTCGTCTAG) ?
[reply] 0.0924

[ask] Same read-out for CTAGCTCCTTGGGTTCTAACCTGTTGCTT (site CTAGCTCCTAA) ?
[reply] 0.0882

[ask] Same read-out for GTACCGCCTTGGGTTCTAACCTGTTGCCT (site GTACAGCCTAG) ?
[reply] 0.483

[ask] Same read-out for TGTGAGCCTTGGGTTCTAACCTGTTGCGA (site TGTGAGCCTTC) ?
[reply] 0.748

====

Exercise: state measured recombinant barcode read abundance (log10) for each of the sequences provided.
assay: recombinant barcode read abundance after kanamycin selection (control-corrected) (log10(CPM+1)); higher = more efficient recombination; sequences stand for … in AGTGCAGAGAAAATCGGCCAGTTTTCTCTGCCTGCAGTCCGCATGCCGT…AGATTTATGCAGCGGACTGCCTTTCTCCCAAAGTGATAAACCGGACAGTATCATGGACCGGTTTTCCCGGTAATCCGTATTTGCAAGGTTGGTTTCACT; site = the 11-nt target
Form: value (number only, do not type unit).

[ask] Dear colleague, I am looking for the recorded recombinant barcode read abundance (log10) of the following sequence: GGGGTTCCTTGGGTTCTAACCTGTTGCGT (site GGGGTTCCTAG)
[reply] 1.35

[ask] Same read-out for AAGGTCACTTGGGTTCTAACCTGTTGCCT (site ATGGTCACTAG) ?
[reply] 0.361

[ask] Same read-out for GAGGGTACTTGGGTTCTAACCTGTTGCCT (site GAGGGTACTAG) ?
[reply] 1.76

[ask] Same read-out for TCGTAGACTTGGGTTCTAACCTGTTGCTA (site TCGTAGACTTA) ?
[reply] 0.215

[ask] Same read-out for TTGGAAGCTTGGGTTCTAACCTGTTGCCT (site TTGGTAGCTAG) ?
[reply] 2.19

[ask] Same read-out for CGAACTACTTGGGTTCTAACCTGTTGCGT (site CGAACTACTAT) ?
[reply] 0.0569

====

assay: recombinant barcode read abundance after kanamycin selection (control-corrected) (log10(CPM+1)); higher = more efficient recombination; sequences stand for … in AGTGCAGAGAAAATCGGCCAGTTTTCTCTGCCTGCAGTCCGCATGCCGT…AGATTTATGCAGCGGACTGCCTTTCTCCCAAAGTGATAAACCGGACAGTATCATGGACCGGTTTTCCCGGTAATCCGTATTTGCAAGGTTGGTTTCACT; site = the 11-nt target
Exercise: state measured recombinant barcode read abundance (log10) for each of the sequences provided.
Form: value (number only, do not type unit).

[ask] Dear colleague, I am looking for the recorded recombinant barcode read abundance (log10) of the following sequence: TAGCCTACTTGGGTTCTAACCTGTTGCGT (site TAGCCTACTTC)
[reply] 0

[ask] Same read-out for CTAAGCTCTTGGGTTCTAACCTGTTGCTA (site CTAAGCTCTCA) ?
[reply] 0.0617

[ask] Same read-out for GCTGGACCTTGGGTTCTAACCTGTTGCCT (site ACTGGACCTAA) ?
[reply] 0.179

[ask] Same read-out for GTCTGTTCTTGGGTTCTAACCTGTTGCCT (site GCCTGTTCTAG) ?
[reply] 0.071
